tested_target: Female germline-specific tumor suppressor gld-1 (Caenorhabditis elegans) (UniProt Q17339)
Sequence (Q17339 whole entry, looked up): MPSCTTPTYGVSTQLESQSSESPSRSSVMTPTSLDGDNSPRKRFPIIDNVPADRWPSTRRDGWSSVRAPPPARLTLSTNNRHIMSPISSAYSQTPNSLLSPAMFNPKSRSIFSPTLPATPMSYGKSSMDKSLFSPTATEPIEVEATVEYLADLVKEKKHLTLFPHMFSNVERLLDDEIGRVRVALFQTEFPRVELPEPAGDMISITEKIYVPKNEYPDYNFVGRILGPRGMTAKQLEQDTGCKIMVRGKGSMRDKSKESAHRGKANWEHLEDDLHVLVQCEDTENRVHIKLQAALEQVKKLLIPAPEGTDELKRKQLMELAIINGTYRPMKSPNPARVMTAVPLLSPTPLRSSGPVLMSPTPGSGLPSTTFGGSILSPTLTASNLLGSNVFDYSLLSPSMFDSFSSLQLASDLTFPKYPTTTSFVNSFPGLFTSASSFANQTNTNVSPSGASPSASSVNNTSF
protocol_notes: small molecules blocking C. elegans GLD-1 RNA recognition – biochemical, fluorescence polarization, primary screen (AID 2280)
settings: purified GLD-1 + fluorescein TGE RNA, at 5.96 µM
In all, about 320,000 compounds went through this assay and about 1,400 (0.44%) were called active.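 Rule for the calls: active = percent inhibition above a per-plate cutoff, the plate mean of test compounds plus 3 SD (cut at about 30% in these data); inactive = the rest.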 What follows is part of a selection rich in actives, with near analogues and random picks from the rest.
Assign a class; possible classes are TRUE for active, FALSE for inactive

Query string: Called result for C=CCOc1cccc(C2C(C(=O)c3ccc(C)o3)=C(O)C(=O)N2c2nnc(C)s2)c1 (stereo not drawn)
Result string: TRUE

Query string: And for COc1ccc(C2C(C#N)=C(N)N(c3ncn[nH]3)C3=C2C(=O)CCC3)cc1 (stereo not drawn) ?
Result string: FALSE

Query string: And for CCOc1ccc(N2CC(C(=O)NCCN3C(=O)S/C(=C\c4cccnc4)C3=O)CC2=O)cc1 (stereo not drawn) ?
Result string: FALSE
